Tested On: TEAD1 (Homo sapiens, UniProt P28347)
Sequence (P28347 whole entry, species assumed): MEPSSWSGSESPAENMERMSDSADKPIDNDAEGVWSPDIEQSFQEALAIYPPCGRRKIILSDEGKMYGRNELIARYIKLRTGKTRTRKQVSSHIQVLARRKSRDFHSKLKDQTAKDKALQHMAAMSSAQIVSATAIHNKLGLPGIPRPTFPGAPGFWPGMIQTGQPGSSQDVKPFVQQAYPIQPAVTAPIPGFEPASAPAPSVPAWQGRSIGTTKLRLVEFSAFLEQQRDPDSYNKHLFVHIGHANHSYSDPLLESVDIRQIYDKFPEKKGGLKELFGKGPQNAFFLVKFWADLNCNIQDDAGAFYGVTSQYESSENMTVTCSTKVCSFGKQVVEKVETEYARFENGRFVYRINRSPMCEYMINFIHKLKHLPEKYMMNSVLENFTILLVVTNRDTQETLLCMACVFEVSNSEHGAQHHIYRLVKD
Assay Summary: Thermal shift assay TEAD1
Type: binding
I'd be grateful if you could share measured TEAD1 ΔTm for these entries.
Answer with a number only, understood to be in °C.

TEAD1 ΔTm in this record for Cc1ccc2c(c1)c(C1C[C@H]1C(=O)O)cn2-c1ccc(C(F)(F)F)cc1 (mixture of isomers) [Example 21] : 11

TEAD1 ΔTm in this record for CC(C)NC(=O)[C@@H]1CC1c1cc(Oc2ccc(C(F)(F)F)cc2)cc2cn(C)nc12 (mixture of isomers) [Example 56] : 8.3

TEAD1 ΔTm in this record for CNS(=O)(=O)/C=C/c1cc(-c2ccc(C(F)(F)F)cc2)cc2c1cnn2C [Example 41] : 2.1

TEAD1 ΔTm in this record for CNS(=O)(=O)CCc1cc(Oc2ccc(C(F)(F)F)cc2)cc2cn(C)nc12 [Example 45] : 9.3

TEAD1 ΔTm in this record for Cn1cc2cc(Oc3ccc(C(F)(F)F)cc3)cc(C3C[C@H]3C(=O)NC3CC4(CC(O)C4)C3)c2n1 (single isomer, unassigned) [Example 95] : 9.4

TEAD1 ΔTm in this record for Cn1cc2cc(Oc3ccc(C(F)(F)F)cc3)cc([C@@H]3C[C@H]3C(=O)N3CC[C@@H](O)[C@H](O)C3)c2n1 (single isomer, unassigned) [Example 75b] : 9.3

TEAD1 ΔTm in this record for Cn1cc2nc(Oc3ccc(C(F)(F)F)cc3)cc([C@@H]3C[C@H]3C(=O)N3C[C@@H]4C[C@H]3CO4)c2n1 (single isomer, unassigned) [Example 120] : 4.1

TEAD1 ΔTm in this record for Cn1cc2cc(Oc3ccc(C(F)(F)F)cc3)cc([C@@H]3C[C@H]3C(=O)NC#N)c2n1 (single isomer, unassigned) [Example 71] : 11.2

TEAD1 ΔTm in this record for Cn1ncc2c([C@@H]3C[C@H]3C(=O)N3CC(O)C3)cc(-c3ccc(C(F)(F)F)cc3)cc21 (racemic) [Example 31] : 3

TEAD1 ΔTm in this record for CN1CCC2(CN(C(=O)[C@@H]3CC3c3cc(Oc4ccc(C(F)(F)F)cc4)cc4cn(C)nc34)C2)C1=O (single isomer, unassigned) [Example 115] : 4.2

TEAD1 ΔTm in this record for CNC(=O)[C@@H]1CC1c1cc(OC2CC3(C2)CC(F)(F)C3)cc2cn(C)nc12 (mixture of isomers) [Example 94] : 3.3

TEAD1 ΔTm in this record for CNC(=O)[C@@H]1CC1c1cc(-c2ccc(C(F)(F)F)cc2)cc2cccnc12 (mixture of isomers) [Example 38] : 1.1

TEAD1 ΔTm in this record for CN(C)C(=O)[C@@H]1C[C@H]1c1cc(Oc2ccc(C(F)(F)F)c(F)c2)cc2cn(C)nc12 (single isomer, unassigned) [Example 141] : 9.3

====

Tested On: TEAD2 (Homo sapiens, UniProt Q15562)
Sequence (Q15562 whole entry, species assumed): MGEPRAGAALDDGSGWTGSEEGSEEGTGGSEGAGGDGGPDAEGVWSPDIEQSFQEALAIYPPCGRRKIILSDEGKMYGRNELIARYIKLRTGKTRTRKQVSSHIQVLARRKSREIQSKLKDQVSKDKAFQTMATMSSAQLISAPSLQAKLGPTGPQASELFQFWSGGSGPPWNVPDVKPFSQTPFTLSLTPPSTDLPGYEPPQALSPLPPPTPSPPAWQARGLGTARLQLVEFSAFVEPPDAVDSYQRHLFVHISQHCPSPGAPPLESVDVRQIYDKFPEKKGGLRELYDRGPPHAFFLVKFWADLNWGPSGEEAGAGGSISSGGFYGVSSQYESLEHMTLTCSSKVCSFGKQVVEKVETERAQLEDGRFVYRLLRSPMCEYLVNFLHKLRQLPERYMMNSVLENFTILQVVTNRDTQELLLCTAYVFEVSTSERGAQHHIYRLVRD
Assay Summary: Thermal shift assay TEAD2
Assay type: binding
Measured Endpoint: TEAD2 ΔTm (°C)
Answer with a number only, understood to be in °C.

TEAD2 ΔTm in this record for Cn1cc2cc(-c3ccc(C(F)(F)F)cc3)cc(C3C[C@H]3C(=O)O)c2n1 (mixture of isomers) : 7

TEAD2 ΔTm in this record for CC(NC(=O)[C@@H]1CC1c1cc(Oc2ccc(C(F)(F)F)cc2)cc2cn(C)nc12)c1ccccn1 (mixture of isomers) : 9.4

TEAD2 ΔTm in this record for Cn1cc2nc(Oc3ccc(C(F)(F)F)cc3)cc([C@H]3C[C@@H]3C(=O)N3CC(O)C3)c2n1 (single isomer, unassigned) [Example 108b] : 9.1

TEAD2 ΔTm in this record for O=C(O)[C@@H]1CC1c1cc(Oc2ccc(C(F)(F)F)cc2)cc2cccnc12 (mixture of isomers) : 14.2

TEAD2 ΔTm in this record for Cn1cc2cc(Oc3ccc(C(F)(F)F)cc3)cc(C3C[C@H]3C(=O)N3CCS(=O)(=O)CC3)c2n1 (single isomer, unassigned) : 5.2

TEAD2 ΔTm in this record for O=C(O)[C@@H]1CC1c1cc(-c2ccc(C(F)(F)F)cc2)cc2cn(-c3cccnc3)nc12 (mixture of isomers) : 1.6

TEAD2 ΔTm in this record for Cn1cc2cc(Oc3ccc(C(F)F)cc3)cc([C@@H]3C[C@H]3C(=O)N3CC(O)C3)c2n1 (single isomer, unassigned) [Example 89a] : 3.3
